# assayed.system: T1, human PACAP38 (human, not fully specified; C-terminal lysine is amidated; N-terminal or C-terminal biotin in the HTRF and PC-12 cell binding assays)
# T1 peptide: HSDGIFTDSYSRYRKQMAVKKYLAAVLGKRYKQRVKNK
# assay.name: cell-based or functional assay
value.type: IC50, 0.1 nM PACAP38-induced PAC1-R mediated cAMP increase
# do not omit the unit; it follows the number

anti-PACAP antibody Ab15 (antibody, human IgG1, kappa, N297A, V domains shown, full-length rabbit/human chimeric antibody) VH: QSVEASGGHLVTPGTPLTLTCTVSGFSLSSAAMNWVRQAPGKGLEWIGSVDERQNKYYASWAKGRFTISRTSSTTVNLKMTSPTTEDTATYFCARGGGEFFIWGQGTLVTVSS VL: AQVLTQTPSSVSAAVGGTVTINCQSSQSVYSNNRLSWYQQKPGQPPNLLIYEASSLASGVPSRFSGSGSGTQFTLTISDLECDDAATYYCAGAYNTGIYGFGGGTEVVVKR | 0.162 nM
anti-PACAP antibody Ab2 (antibody, human IgG1, kappa, N297A, V domains shown, full-length rabbit/human chimeric antibody) VH: QSVEESGGRLVTPGTPLTLTCTVSGFSLSGAAMNWVRQAPGKGLEWIGVIGNSGSTYYASWAKGRFTISKTSSTTVDLKMTSPTTEDTATYFCARGGGEFFIWGQGTLVTVSS VL: AQVLTQTPSPVSAAVGGTVTINCQSSESVYKNNYLSWYQQKPGQPPKFLIYQASNLADGVPSRFKGSGSGTQFTLTISDLECDDAATYYCAGGYSTYMSGFGGGTEVVVKR | 0.237 nM
anti-PACAP antibody Ab19 (antibody, human IgG1, kappa, N297A, V domains shown, full-length rabbit/human chimeric antibody) VH: QSVEASGGRLVTPGTPLTLTCTVSGFSLSSATMNWVRQAPGKGLEWIGLIGGNDERYYASWAKGRFTISKTSSTTVDLKMTSPTTEDTATYFCARGGGEFFIWGPGTLVTVSS VL: AQVLTQTPSSVSAAVGGTVTINCQSSESVYTNDRLSWYQQKPGQPPKLLIYEASKLASGVPPRFSGSGSGTQFTLTISDLECDDAATYYCAGAYSTSIHGFGGGTEVVVKR | 0.101 nM

Now let's try a different one.
## Task For the binder anti-PACAP antibody Ab1 (antibody, human IgG1, kappa, N297A, V domains shown, full-length rabbit/human chimeric antibody) VH: QSVEESGGRLVTPGTPLTLTCTVSGFSLSSAVMNWVRQAPGKGLEWIGSIVASGTTYYASWANGRFTISKTSSTTMDLKMTSPTTEDTATYFCARGGGEFFIWGPGTLVTVSS VL: DPVMTQTPSSTSAAVGGTVTISCQSSESVYSNYLSWYQQKPGQPPNFLIYQASNLASGVPSRFKGSGSGTQFTLTITDLECDDAATYYCAGGYSENIVGFGGGTEVVVKR , report IC50, 0.1 nM PACAP38-induced PAC1-R mediated cAMP increase.
## Result 0.293 nM
